# System: S. vaccaria PCY1
# Sequence (as listed by the source): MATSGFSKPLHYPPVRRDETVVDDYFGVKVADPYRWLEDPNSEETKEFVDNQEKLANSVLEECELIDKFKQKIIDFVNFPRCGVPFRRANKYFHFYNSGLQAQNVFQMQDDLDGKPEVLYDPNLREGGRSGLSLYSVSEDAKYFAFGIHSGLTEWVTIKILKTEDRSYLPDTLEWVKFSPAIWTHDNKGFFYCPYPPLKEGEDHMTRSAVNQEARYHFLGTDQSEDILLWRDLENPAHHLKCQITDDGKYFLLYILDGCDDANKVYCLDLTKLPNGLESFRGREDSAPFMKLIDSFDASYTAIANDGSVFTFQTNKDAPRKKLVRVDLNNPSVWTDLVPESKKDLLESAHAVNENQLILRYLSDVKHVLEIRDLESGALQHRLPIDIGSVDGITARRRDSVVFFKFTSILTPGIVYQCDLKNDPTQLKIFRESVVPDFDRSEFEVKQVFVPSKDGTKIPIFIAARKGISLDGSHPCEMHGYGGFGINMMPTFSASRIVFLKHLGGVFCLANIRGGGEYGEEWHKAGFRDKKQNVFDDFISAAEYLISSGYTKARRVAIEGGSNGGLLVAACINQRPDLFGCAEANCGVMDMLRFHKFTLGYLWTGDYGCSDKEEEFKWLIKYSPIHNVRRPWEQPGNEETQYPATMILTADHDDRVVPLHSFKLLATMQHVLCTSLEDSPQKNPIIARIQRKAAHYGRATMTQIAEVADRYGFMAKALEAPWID
# Assay Overview: In vitro assay of recombinant S. vaccaria PCY1 with wild type and mutant presegetalin substrates, products detected by LC/MS
# Format: biochemical, Saponaria vaccaria
# Design: key: +=presence; −=absence
# Experimental Setup: substrates tested for cyclization by S. vaccaria PCY1
Square brackets hold non-standard residues; d marks the D form. Ends that are not written are not given here.
Attribute Measured: LP (linear peptide product detected by LC/MS after in vitro assay)

INSERT INTO assay_data (substance, value_measured) VALUES
  ('9 (GVAVWAFQAKDVENASAPV; Presegetalin A1[14,32] variant aa16 = alanine) [compound 9]', '+'),
  ('14 (GVPVWAFAAKDVENASAPV; Presegetalin A1[14,32] Q21A) [compound 14]', '+'),
  ('40 (GLPGWPFQAKDVENASAPV; Presegetalin L1[14,32]) [compound 40]', '−'),
  ('24 (GVPVWAFQAKDVENASAAV; Presegetalin A1[14,32] P31A) [compound 24]', '+'),
  ('15 (GVPVWAFQVKDVENASAPV; Presegetalin A1[14,32] A22V) [compound 15]', '+'),
  ('3 (GVPVWAFQAKDVENA; Presegetalin A1[14,28]) [compound 3]', '+'),
  ('12 (GVPVWVFQAKDVENASAPV; Presegetalin A1[14,32] variant aa19 = valine) [compound 12]', '−'),
  ('34 (GVPAAAVWAFQAKDVENASAPV; Presegetalin A1[14,32] ins 16AAA17) [compound 34]', '+'),
  ('22 (GVPVWAFQAKDVENAAAPV; Presegetalin A1[14,32] S29A) [compound 22]', '+'),
  ('26 (G[dV]PVWAFQAKDVENASAPV) [compound 26]', '+'),
  ('29 (GVPV[dW]AFQAKDVENASAPV) [compound 29]', '+'),
  ('20 (GVPVWAFQAKDVEAASAPV; Presegetalin A1[14,32] N27A) [compound 20]', '+'),
  ('43 (GPIPFYGFQAKDAENASVPV; - Dianthus Precursor A[14,33]) [compound 43]', '−'),
  ('31 (GV[dP]VAAFQAKDVENASAPV) [compound 31]', '−'),
  ('21 (GVPVWAFQAKDVENVSAPV; Presegetalin A1[14,32] A28V) [compound 21]', '+'),
  ('19 (GVPVWAFQAKDVANASAPV; Presegetalin A1[14,32] E26A) [compound 19]', '+'),
  ('5 (GVPVWAF; Presegetalin A1[14,20]) [compound 5]', '−'),
  ('16 (GVPVWAFQAADVENASAPV; Presegetalin A1[14,32] K23A) [compound 16]', '+');

###

# Test system: S. vaccaria PCY1
# Assay Overview: In vitro assay of recombinant S. vaccaria PCY1 with wild type and mutant presegetalin substrates, products detected by LC/MS
# Assay type: biochemical, Saponaria vaccaria
# Design: key: +=presence; −=absence
# Experimental Setup: substrates tested for cyclization by S. vaccaria PCY1
# Description: The gene corresponding to S. vaccaria PCY1 was cloned and expressed in E. coli with a His-tag. HisPur Cobalt Resin™ (Thermo Scientific) was used for purification of recombinant PCY1. The purified PCY1 was quantified using BCA method (Pierce; http://http://www.piercenet.com/) with BSA as a calibration standard. […]
Square brackets hold non-standard residues; d marks the D form. Ends that are not written are not given here.
Attribute Measured: LP (linear peptide product detected by LC/MS after in vitro assay)

INSERT INTO results (substance, value_measured) VALUES
  ('27 (GV[dP]VWAFQAKDVENASAPV) [compound 27]', '−'),
  ('36 (GLSFAFPAKDAENASSPV; Presegetalin D1[14,31]) [compound 36]', '+'),
  ('23 (GVPVWAFQAKDVENASVPV; Presegetalin A1[14,32] A30V) [compound 23]', '+'),
  ('2 (GVPVWAFQAKDVENAPV; Presegetalin A1[14,30]) [compound 2]', '+'),
  ('10 (GVPAWAFQAKDVENASAPV; Presegetalin A1[14,32] variant aa17 = alanine) [compound 10]', '+'),
  ('41 (FSASYSSKPIQTQVSNGMDNASAPV; Presegetalin F1[14,38]) [compound 41]', '−');
